meta.source: patent US10660877B2

Target: human TLR9 (Homo sapiens (Human), UniProt Q9NR96)
Sequence (Q9NR96 26-1032): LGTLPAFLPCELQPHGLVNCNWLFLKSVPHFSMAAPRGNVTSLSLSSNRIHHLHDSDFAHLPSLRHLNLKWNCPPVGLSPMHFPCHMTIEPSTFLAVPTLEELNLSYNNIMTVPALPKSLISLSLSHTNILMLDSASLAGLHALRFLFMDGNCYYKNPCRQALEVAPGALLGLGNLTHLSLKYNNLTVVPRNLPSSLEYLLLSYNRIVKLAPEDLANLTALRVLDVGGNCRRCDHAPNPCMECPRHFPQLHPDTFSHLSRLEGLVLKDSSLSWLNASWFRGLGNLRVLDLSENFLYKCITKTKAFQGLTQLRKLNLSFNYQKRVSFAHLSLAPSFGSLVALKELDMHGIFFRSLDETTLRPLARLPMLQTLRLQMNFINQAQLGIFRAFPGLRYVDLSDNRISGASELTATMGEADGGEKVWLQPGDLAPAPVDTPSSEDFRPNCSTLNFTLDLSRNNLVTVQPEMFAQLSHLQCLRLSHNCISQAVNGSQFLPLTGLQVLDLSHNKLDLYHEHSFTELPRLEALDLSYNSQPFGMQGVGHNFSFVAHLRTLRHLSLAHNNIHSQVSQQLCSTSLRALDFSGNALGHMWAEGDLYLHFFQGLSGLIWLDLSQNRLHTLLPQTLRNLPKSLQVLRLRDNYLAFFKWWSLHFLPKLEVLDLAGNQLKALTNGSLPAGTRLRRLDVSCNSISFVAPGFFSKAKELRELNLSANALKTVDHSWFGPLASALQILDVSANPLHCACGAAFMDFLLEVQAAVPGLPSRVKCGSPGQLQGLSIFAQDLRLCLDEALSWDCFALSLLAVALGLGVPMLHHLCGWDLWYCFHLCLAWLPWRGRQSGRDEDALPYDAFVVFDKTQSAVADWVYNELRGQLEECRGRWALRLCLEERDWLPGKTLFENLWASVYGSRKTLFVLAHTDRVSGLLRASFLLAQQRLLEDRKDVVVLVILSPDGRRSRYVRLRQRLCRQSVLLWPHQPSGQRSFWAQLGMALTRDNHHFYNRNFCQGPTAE
Assay: TLR9 inhibition reporter assay (HEK-Blue cells, SEAP reporter, ODN2006 stimulation)
Conditions: read-out: TLR9 IC50, HEK-Blue cells overexpressing human TLR9, ODN2006 5 nM
Measure: IC50 (nM)

> print(dat)
                                   compound                        measurement.target  reported.result
1  COc1cc(-c2[nH]c3ccc(C4CCNCC4)cc3c2C(C)C)cc(C)n1  human TLR9 (Homo sapiens (Human), UniProt Q9NR96)             2340

[I] Cc1cc(-c2[nH]c3ccc(C4CCN(CC(=O)N(C)CCCO)CC4)cc3c2C(C)C)cc(C)n1
[II] Cc1cc(-c2[nH]c3ccc(C4CCN(C(=O)C5CCNC5)CC4)cc3c2C(C)C)ccn1 (stereo not shown)
Lab note: check whether I or II has the lower measured IC50. Field: selected label. Fill in the label of the entry you choose. II

[1] Cc1cc(-c2[nH]c3ccc(C4CCN(CC(=O)N(C)[C@H]5CCOC5)CC4)cc3c2C(C)C)cc(C)n1
[2] Cc1cc(-c2[nH]c3ccc(C4CCN(C(=O)C5CCOCC5)CC4)cc3c2C(C)C)ccn1
Between these two entries, 1 and 2 , state which has the higher IC50. API: response body contains the label of the selected item. 2

###

Target: human TLR8 (Homo sapiens (Human))
Sequence (Q9NR97 27-1041): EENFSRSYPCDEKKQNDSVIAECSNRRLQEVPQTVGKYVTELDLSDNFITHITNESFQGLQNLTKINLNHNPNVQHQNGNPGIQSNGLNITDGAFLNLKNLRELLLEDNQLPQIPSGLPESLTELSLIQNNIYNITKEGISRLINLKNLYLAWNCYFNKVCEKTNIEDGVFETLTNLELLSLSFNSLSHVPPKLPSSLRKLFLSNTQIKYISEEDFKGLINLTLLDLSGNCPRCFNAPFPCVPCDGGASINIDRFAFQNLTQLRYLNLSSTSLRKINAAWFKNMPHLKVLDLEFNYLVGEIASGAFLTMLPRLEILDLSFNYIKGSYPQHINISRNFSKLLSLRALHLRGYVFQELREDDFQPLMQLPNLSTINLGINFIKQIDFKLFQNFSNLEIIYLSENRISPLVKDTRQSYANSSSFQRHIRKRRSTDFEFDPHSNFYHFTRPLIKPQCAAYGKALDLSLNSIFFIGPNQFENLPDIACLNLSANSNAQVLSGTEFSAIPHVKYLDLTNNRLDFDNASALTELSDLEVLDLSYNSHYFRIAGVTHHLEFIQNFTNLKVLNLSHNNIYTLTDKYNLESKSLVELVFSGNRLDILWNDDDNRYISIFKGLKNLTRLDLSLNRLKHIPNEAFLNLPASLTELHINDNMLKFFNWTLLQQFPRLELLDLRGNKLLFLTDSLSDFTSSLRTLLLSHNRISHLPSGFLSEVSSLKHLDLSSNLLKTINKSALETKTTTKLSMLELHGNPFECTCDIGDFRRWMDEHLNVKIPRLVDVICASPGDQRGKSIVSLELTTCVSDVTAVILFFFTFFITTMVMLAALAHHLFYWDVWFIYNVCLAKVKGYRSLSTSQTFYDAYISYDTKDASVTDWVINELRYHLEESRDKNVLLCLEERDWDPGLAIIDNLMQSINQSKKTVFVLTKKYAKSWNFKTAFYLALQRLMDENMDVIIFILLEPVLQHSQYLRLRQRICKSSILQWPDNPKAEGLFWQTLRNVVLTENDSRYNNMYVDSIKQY
Test: TLR8 inhibition reporter assay (HEK-Blue cells, SEAP reporter, R848 stimulation)
Details: read-out: TLR8 IC50, HEK-Blue cells overexpressing human TLR8, R848 15.9 μM
pIC50: −log10 of the molar value.
Measure: pIC50

# count of solved cases: 3
> print(dat)
                                   molecule  reported.result
1  Cc1cc(-c2[nH]c3ccc(C4CCN(Cc5nncn5C)CC4)cc3c2C(C)C)c(C)cn1             8.19
2  Cc1cc(-c2[nH]c3ccc(C4CCN(C(=O)CN(C)C(C)C)CC4)cc3c2C(C)C)cc(C)n1             7.95
3  Cc1cc(-c2[nH]c3ccc(C4CCN(CC(=O)NCCC(C)O)CC4)cc3c2C(C)C)cc(C)n1 (centres unmarked)             8.22

[a] Cc1cc(-c2[nH]c3ccc(C4CCN(C(=O)[C@@]5(C)CCCN5)CC4)cc3c2C(C)C)cc(C)n1
[b] Cc1cc(-c2[nH]c3ccc(C4CCN(C(=O)C5(N)COC5)CC4)cc3c2C(C)C)ccn1
[c] CCc1c(-c2ccnc(C)c2)[nH]c2ccc(C3CCN(C(=O)C4CCNC4)CC3)cc12 (centres unmarked) [Example 595]
[d] Cc1cc(-c2[nH]c3ccc(C4CCN(CCO)CC4)cc3c2C(C)C)c(F)cn1
[e] Cc1cc(-c2[nH]c3ccc(C4CCNCC4)cc3c2C(C)C)c(Br)c(C)n1
# rank by pIC50, ascending (min first) Order the labels as requested and give them as your answer. b, c, a, e, d
(b: 6.65, c: 7.49, a: 8.14, e: 8.39, d: 8.64)

###

Target: human TLR7 (Homo sapiens (Human), UniProt Q9NYK1)
Sequence (Q9NYK1 27-1049): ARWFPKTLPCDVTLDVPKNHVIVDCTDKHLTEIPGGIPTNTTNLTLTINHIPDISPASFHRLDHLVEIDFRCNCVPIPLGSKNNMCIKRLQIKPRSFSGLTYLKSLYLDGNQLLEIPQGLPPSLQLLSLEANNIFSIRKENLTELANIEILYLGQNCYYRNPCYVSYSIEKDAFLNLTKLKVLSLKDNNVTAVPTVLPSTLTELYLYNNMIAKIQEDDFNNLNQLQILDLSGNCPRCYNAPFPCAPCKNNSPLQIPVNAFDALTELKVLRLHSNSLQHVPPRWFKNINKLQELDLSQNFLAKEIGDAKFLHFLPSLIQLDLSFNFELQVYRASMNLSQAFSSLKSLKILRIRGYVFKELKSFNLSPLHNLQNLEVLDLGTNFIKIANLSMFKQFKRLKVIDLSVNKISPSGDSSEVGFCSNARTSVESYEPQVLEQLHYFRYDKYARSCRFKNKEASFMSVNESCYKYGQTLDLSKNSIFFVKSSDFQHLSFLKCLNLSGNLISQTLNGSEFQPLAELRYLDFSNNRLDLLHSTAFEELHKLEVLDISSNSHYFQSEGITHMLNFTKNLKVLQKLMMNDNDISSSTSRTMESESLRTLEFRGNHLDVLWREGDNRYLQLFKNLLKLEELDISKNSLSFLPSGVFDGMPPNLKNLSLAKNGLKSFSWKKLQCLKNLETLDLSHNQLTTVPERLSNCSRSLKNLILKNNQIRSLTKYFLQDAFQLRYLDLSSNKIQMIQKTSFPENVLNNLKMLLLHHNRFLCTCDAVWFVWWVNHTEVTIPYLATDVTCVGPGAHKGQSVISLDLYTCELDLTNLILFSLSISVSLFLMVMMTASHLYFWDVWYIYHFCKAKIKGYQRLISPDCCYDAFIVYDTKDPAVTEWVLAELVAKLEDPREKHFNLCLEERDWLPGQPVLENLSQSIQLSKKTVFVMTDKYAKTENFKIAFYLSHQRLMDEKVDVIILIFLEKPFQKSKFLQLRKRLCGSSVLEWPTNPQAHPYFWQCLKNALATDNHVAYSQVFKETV
Experiment: TLR7 inhibition reporter assay (HEK-Blue cells, SEAP reporter, gardiquimod stimulation)
Format: cell-based
Conditions: HEK-Blue cells, gardiquimod 7.5 μM
Measure: IC50 (nM)

> print(dat)
                                   compound  reported.result
1  Cc1cc(-c2[nH]c3cc(F)c(C4CCN(CC(=O)N(C)C)CC4)cc3c2C(C)C)cc(C)n1              1.9

[A] Cc1cc(-c2[nH]c3ccc(C4CCN(CC(C)(C)O)CC4)cc3c2C(C)C)cc(C)n1
[B] Cc1cc(-c2[nH]c3cc(C(F)(F)F)c(C4CCN(CC5CCNC5)CC4)cc3c2C(C)C)ccn1 (stereo not shown)
[C] Cc1cc(-c2[nH]c3ccc(C4CCN(CC(O)C(C)C)CC4)cc3c2C(C)C)cc(C)n1 (stereo not shown) [Example 855]
Number of compounds to sort: 3. Sort criterion: IC50, ascending. In plain terms: list the labels in the order you were asked to. A, B, C

###

Molecular target: human TLR7 (Homo sapiens (Human))
Test: TLR7 inhibition reporter assay (HEK-Blue cells, SEAP reporter, gardiquimod stimulation)
Type: cell-based
Settings: HEK-Blue cells overexpressing human TLR7, gardiquimod 7.5 μM
Measure: IC50 (nM)

Worked cases, answers included:
> print(dat)
                                   compound  measure  display.unit  reported.result
1  CCc1c(-c2ccnc(C)c2)[nH]c2ccc(C3CCN(CCCN(C)C)CC3)cc12 [Example 673]     IC50            nM             70.5
2  Cc1cc(-c2[nH]c3ccc(C4CCN(CC(=O)NCC(C)(C)C)CC4)cc3c2C(C)C)cc(C)n1 [Example 219]     IC50            nM             22.5
3  Cc1cc(-c2[nH]c3ccc(C4CCN(Cc5c[nH]cn5)CC4)cc3c2C(C)C)cc(C)n1 [Example 425]     IC50            nM              3.7

[A] Cc1cc(-c2[nH]c3ccc(C4CCN(C(=O)Cn5nnc(N6CCOCC6)n5)CC4)cc3c2C(C)C)cc(C)n1 [Example 149]
[B] Cc1cc(-c2[nH]c3ccc(C4CCN(C(=O)C5CCNC5)CC4)cc3c2C(C)C)cc(C)n1 (single isomer, unassigned) [Example 181]
[C] Cc1cc(-c2[nH]c3ccc(C4CCN(CC5COC5)CC4)cc3c2C(C)C)c(F)cn1 [Example 646]
Please list these in order of increasing IC50. Thank you! Reply with the item labels sorted in the order that was asked for. B, C, A
(B: 2.6 nM, C: 12 nM, A: 21.6 nM)

###

Molecular target: human TLR9 (Homo sapiens (Human), UniProt Q9NR96)
Assay: TLR9 inhibition reporter assay (HEK-Blue cells, SEAP reporter, ODN2006 stimulation);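 further: compounds tested over 0.05 nM to 50 µM, 22 h incubation, inhibition taken as SEAP signal drop from agonist plus DMSO wells toward a known inhibitor control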
Details: read-out: TLR9 IC50, HEK-Blue cells overexpressing human TLR9, ODN2006 5 nM
In this section, each of the compounds is paired with its reported IC50.
Give the number; µM is assumed, so skip it.

> print(dat)
                              record.smiles  reported.result
1  Cc1cc(-c2[nH]c3ccc(C4CCN(C(=O)[C@H]5CCC[C@@]5(C)N)CC4)cc3c2C(C)C)ccn1            0.912

Next:
Give the value of IC50 reported for the following: Cc1cc(-c2[nH]c3ccc(C4CCN(C(=O)[C@H]5C[C@H]6CC[C@@H](C5)N6)CC4)cc3c2C(C)C)ccn1 0.508

###

Molecular target: human TLR8 (Homo sapiens (Human))
Assay: TLR8 inhibition reporter assay (HEK-Blue cells, SEAP reporter, R848 stimulation);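 further: compounds tested from 0.05 nM to 50 µM, 22 h at 37 °C, SEAP measured with HEK-Blue Detection, inhibition relative to agonist plus DMSO versus a known inhibitor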
Conditions: read-out: TLR8 IC50, HEK-Blue cells overexpressing human TLR8, R848 15.9 μM
pIC50: −log10 of the molar value.
Measure: pIC50

These solved cases illustrate the format of a correct answer.
> print(dat)
                                   compound  measure  reported.result
1  Cc1cc(-c2[nH]c3ccc(C4CCN(Cc5cc(C)on5)CC4)cc3c2C(C)C)cc(C)n1    pIC50             7.96
2  Cc1cc(-c2[nH]c3ccc(C4CCN(C(=O)Cn5nnnc5C)CC4)cc3c2C(C)C)cc(C)n1    pIC50             7.33
3  Cc1cc(-c2[nH]c3ccc(C4CCN(Cc5nnc(C6CC6)o5)CC4)cc3c2C(C)C)c(F)cn1    pIC50             7.42

[P] Cc1cc(-c2[nH]c3ccc(C4CCN(C(=O)CN(CCO)C(C)C)CC4)cc3c2C(C)C)cc(C)n1
[Q] Cc1cc(-c2[nH]c3ccc(C4CCN(CC5CN(Cc6ccccc6)CCO5)CC4)cc3c2C(C)C)cc(C)n1 (stereo not shown)
[R] Cc1cc(-c2[nH]c3ccc(C4CCN(C(=O)C5CCOC(C(C)C)C5)CC4)cc3c2C(C)C)ccn1 (stereo not shown)
[S] Cc1cc(-c2[nH]c3ccc(C4CCN(Cc5ccon5)CC4)cc3c2C(C)C)cc(C)n1
Sort the 4 compounds by pIC50; largest first, smallest last. Put the labels in the requested order and list them out. S, Q, P, R

###

Target: human TLR9 (Homo sapiens (Human))
Test: TLR9 inhibition reporter assay (HEK-Blue cells, SEAP reporter, ODN2006 stimulation)
Conditions: read-out: TLR9 IC50, HEK-Blue cells overexpressing human TLR9, ODN2006 5 nM
pIC50: −log10 of the molar value.
Measure: pIC50

Below, 4 molecules whose answers are already recorded.
> print(dat)
                                   molecule  reported.result
1  Cc1cc(-c2[nH]c3ccc(C4CCN(C(=O)c5cccnc5)CC4)cc3c2C(C)C)cc(C)n1             4.80
2  Cc1cc(-c2[nH]c3ccc(C4CCN(CCO)CC4)cc3c2C(C)C)cc(C)n1             6.36
3  Cc1cc(-c2[nH]c3ccc(C4CCN(CC(=O)N(C)CC(O)c5ccccc5)CC4)cc3c2C(C)C)cc(C)n1 (stereo not shown)             6.26
4  CCc1c(-c2cc(C)nc(C)c2)[nH]c2ccc(C3CCN(CC(=O)N(C)C)CC3)cc12             6.99

[P] COCCNCC(=O)N1CCC(c2ccc3[nH]c(-c4cc(C)nc(C)c4)c(C(C)C)c3c2)CC1
[Q] COc1cc(-c2[nH]c3ccc(C4CCN(C5CCN(CC(C)C)CC5)CC4)cc3c2C)ccn1
Lower pIC50: P or Q ? Choose, then provide that item's label. P
(P: 5.95, Q: 6.69)
